- measured_target: rhCETP (Homo sapiens (Human))
- Sequence (P11597 18-493): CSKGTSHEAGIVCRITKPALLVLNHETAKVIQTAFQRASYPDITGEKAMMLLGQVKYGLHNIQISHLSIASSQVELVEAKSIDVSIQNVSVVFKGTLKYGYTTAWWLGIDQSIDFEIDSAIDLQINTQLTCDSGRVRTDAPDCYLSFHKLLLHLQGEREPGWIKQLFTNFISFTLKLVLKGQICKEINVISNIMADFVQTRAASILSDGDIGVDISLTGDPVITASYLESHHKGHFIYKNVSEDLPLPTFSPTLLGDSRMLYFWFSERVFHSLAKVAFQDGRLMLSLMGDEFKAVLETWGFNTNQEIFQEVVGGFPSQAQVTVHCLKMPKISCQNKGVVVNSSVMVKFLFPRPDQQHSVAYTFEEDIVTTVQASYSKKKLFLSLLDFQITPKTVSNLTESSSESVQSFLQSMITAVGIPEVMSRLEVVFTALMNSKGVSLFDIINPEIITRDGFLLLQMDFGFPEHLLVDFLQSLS
- test_details: CETP in vitro assay (CETP Activity Kit, fluorescence, rhCETP)
- Assay type: biochemical
- protocol_conditions: CETP inhibition; Table 1 does not name the assay; read-out: IC50 (nM), Inhibitory Activity of Compounds
Categorize each record by its IC50 using lower level (below 50 nM), middle level (50 nM to below 70 nM), upper level (70 nM or more)

Lookup: Band for the recorded IC50 of CC[C@@H]1C[C@H](N(Cc2cc(C(F)(F)F)cc(C(F)(F)F)c2)c2ncc(-c3cnn(C)c3)cn2)CN1C(=O)N1CCCCC1 ?
Found: lower level

Lookup: Band for the recorded IC50 of CC[C@@H]1C[C@H](N(Cc2cc(C(F)(F)F)cc(C(F)(F)F)c2)c2ncc(-c3cnn(C)c3)cn2)CN1C(=O)OCC(C)(C)C ?
Found: lower level

Lookup: Band for the recorded IC50 of CC[C@@H]1C[C@H](N(Cc2cc(C(F)(F)F)cc(C(F)(F)F)c2)c2ncc(-c3cnn(C)c3)cn2)CN1C(=O)O[C@H](C)CC ?
Found: lower level

Lookup: Band for the recorded IC50 of CC[C@@H]1C[C@H](N(Cc2cc(C(F)(F)F)cc(C(F)(F)F)c2)c2ncc(-c3cnn(C)c3)cn2)CN1C(=O)C1CCCCC1 ?
Found: upper level

Lookup: Band for the recorded IC50 of CC[C@@H]1C[C@H](N(Cc2cc(C(F)(F)F)cc(C(F)(F)F)c2)c2ncc(-c3cnn(C)c3)cn2)CN1C(=O)OC1CCOCC1 ?
Found: middle level

Lookup: Band for the recorded IC50 of CC[C@@H]1C[C@H](N(Cc2cc(C(F)(F)F)cc(C(F)(F)F)c2)c2ncc(-c3cnn(C)c3)cn2)CN1C(=O)N1CCCC1 ?
Found: lower level

Lookup: Band for the recorded IC50 of CC[C@@H]1C[C@H](N(Cc2cc(C(F)(F)F)cc(C(F)(F)F)c2)c2ncc(N3CC[C@H](O)C3)cn2)CN1c1nc(N2CCC(O)CC2)ncc1Cl ?
Found: upper level

Lookup: Band for the recorded IC50 of CC[C@@H]1C[C@H](N(Cc2cc(C(F)(F)F)cc(C(F)(F)F)c2)c2ncc(-c3cnn(C)c3)cn2)CN1C(=O)OCC(F)(F)F ?
Found: middle level

Lookup: Band for the recorded IC50 of CC[C@@H]1C[C@H](N(Cc2cc(C(F)(F)F)cc(C(F)(F)F)c2)c2ncc(-c3cnn(C)c3)cn2)CN1C(=O)OCC1CCOCC1 ?
Found: lower level

Lookup: Band for the recorded IC50 of CC[C@@H]1C[C@H](N(Cc2cc(C(F)(F)F)cc(C(F)(F)F)c2)c2ncc(-c3cnn(C)c3)cn2)CN1C(=O)O[C@@H](C)CC ?
Found: middle level

Values were extracted from patent US8759365B2.
